# merged literature set: IC50 with UniProt Q9UDY8
MEASURED_PARAMETER: IC50 (nM)

- COMPOUND: "CNc1ccc(-n2ncc(C(=O)Nc3cnc(-n4nccn4)c(C#N)c3)c2C(F)(F)F)cn1"
  MEASURED_PARAMETER: "IC50"
  VALUE_UNITS: "nM"
  READOUT_VALUE: 1200

A: CO[C@@H](C)c1ncc(NC(=O)c2cnn(-c3ccc(Cl)n4nccc34)c2C(F)(F)F)cc1Cl (single isomer, unassigned)
B: O=C(Nc1cnc(-c2nnco2)c(Cl)c1)c1cnn(-c2cncc3ccccc23)c1C(F)(F)F
C: O=C(Nc1ccc(-c2n[nH]c(=O)[nH]2)c(Cl)c1)c1cnn(-c2cccc3ncccc23)c1C(F)(F)F
Task field, ranking: reported IC50, descending order. # list labels per requested ordering
A, C, B

====

# merged literature set: IC50 with MALT1 (Homo sapiens)
MEASURED_PARAMETER: IC50 (µM)

Worked set:
- COMPOUND: "Cc1nc(-n2nccn2)c(Br)cc1NC(=O)c1cnn(-c2cccc3c(=O)[nH]ccc23)c1C(F)(F)F"
  VALUE_UNITS: "µM"
  IC50: 0.018
- COMPOUND: "Cc1cc(C#N)ccc1-n1ncc(C(=O)Nc2cnc(-n3nccn3)c(C#N)c2)c1C(F)(F)F"
  VALUE_UNITS: "µM"
  IC50: 0.038
- COMPOUND: "CO[C@@H](C)c1c(NC(=O)Nc2cnc(-n3ncc([C@@H](C)O)n3)c(Cl)c2)cnc(C)c1C#N"
  VALUE_UNITS: "µM"
  IC50: 0.06
- COMPOUND: "N#Cc1cc(NC(=O)c2cnn(-c3ccc(F)c(F)c3Cl)c2C(F)(F)F)cnc1-n1nccn1"
  VALUE_UNITS: "µM"
  IC50: 0.071
- COMPOUND: "N#Cc1cc(NC(=O)c2cnn(-c3ccnc(Cl)c3)c2C(F)(F)F)cnc1-n1nccn1"
  VALUE_UNITS: "µM"
  IC50: 0.457
- COMPOUND: "N#Cc1ccc(-n2ncc(C(=O)Nc3cnc([C@@H]4CCCO4)c(Cl)c3)c2C(F)(F)F)c2ccnn12 (single isomer, unassigned)"
  VALUE_UNITS: "µM"
  IC50: 0.036
- COMPOUND: "O=C(Nc1cnc(-n2nccn2)c(Cl)c1)c1cnn(-c2cncc3ccccc23)c1C(F)(F)F"
  VALUE_UNITS: "µM"
  IC50: 0.019
- COMPOUND: "Cc1cc(N)ncc1-n1ncc(C(=O)Nc2cnc(-n3nccn3)c(Cl)c2)c1C(F)(F)F"
  VALUE_UNITS: "µM"
  IC50: 0.724

1: Cc1cc(NC(=O)c2cnn(-c3cccc4ncccc34)c2C(F)(F)F)cnc1-n1ccn(C)c1=O
2: Cc1nc2c(-n3ncc(C(=O)Nc4cnc(-n5nccn5)c(C#N)c4)c3C(F)(F)F)cccc2s1
Which one would you say has the larger IC50 value: 1 , or 2 ? Response format: the label of the selected entry.
1

====

pIC50: −log10 of the molar value.
# merged literature set: pIC50 with MALT1 (Homo sapiens, UniProt Q9UDY8)
MEASURED_PARAMETER: pIC50

Worked set:
- MOLECULE: "Cc1nc(-n2nccn2)c(Br)cc1NC(=O)c1cnn(-c2ccc(F)c(N)n2)c1C(F)(F)F"
  READOUT_VALUE: 6.63
- MOLECULE: "COC(C)c1c(NC(=O)Nc2ccnc(C(F)(F)F)c2)cnc(C)c1Cl (single isomer, unassigned)"
  READOUT_VALUE: 4.82
- MOLECULE: "N#Cc1cc(NC(=O)c2cnn(-c3cc(Cl)nc4ccccc34)c2C(F)(F)F)cnc1-n1nccn1"
  READOUT_VALUE: 5.67
- MOLECULE: "Cn1nc(-n2ncc(C(=O)Nc3cnc(-n4nccn4)c(C#N)c3)c2C(F)(F)F)c2ccccc21"
  READOUT_VALUE: 6.80
- MOLECULE: "COCc1cnnn1-c1ncc(NC(=O)c2cnn(-c3cccc4ncccc34)c2C(F)(F)F)cc1Cl"
  READOUT_VALUE: 6.55
- MOLECULE: "COC(C)c1c(NC(=O)Nc2cnc(-n3nccn3)c(Cl)c2)cncc1OCC(N)=O (stereo not shown)"
  READOUT_VALUE: 5.85

I: CNc1nc(-n2ncc(C(=O)Nc3cnc(-n4nccn4)c(C#N)c3)c2C(F)(F)F)ccc1F
II: N#Cc1cc(NC(=O)c2cnn(-c3ccnc4ccoc34)c2C(F)(F)F)cnc1-n1nccn1
Which one would you say has the larger pIC50 value: I , or II ? Response format: the label of the selected entry.
II
(II: 8.10, I: 7.00)

P: CO[C@H](C)c1c(NC(=O)Nc2cnc(-n3nccn3)c(Cl)c2)cncc1OC(C)C
Q: N#Cc1cc(NC(=O)c2cnn(-c3cc(N)nc4ccccc34)c2C(F)(F)F)cnc1-n1nccn1
Consider entries P and Q . Which has the numerically lower pIC50? Response format: the label of the selected entry.
Q

====

# merged literature set: pIC50 with MALT1 (Homo sapiens, UniProt Q9UDY8)
pIC50: −log10 of the molar value.
MEASURED_PARAMETER: pIC50

Worked set:
- MOLECULE: "N#Cc1cc(NC(=O)c2cnn(-c3cncc4ccccc34)c2C(F)(F)F)ccc1-n1nccn1"
  pIC50: 7.51
- MOLECULE: "C#Cc1cc(NC(=O)c2cnn(-c3cccc4c(=O)[nH]ccc34)c2C(F)(F)F)c(C)nc1-n1nccn1"
  pIC50: 6.77
- MOLECULE: "CO[C@@H](C)c1c(NC(=O)Nc2cnc(-n3nccn3)c(C(F)(F)F)c2)cnc(C)c1C#N"
  pIC50: 6.68

I: CS(=N)(=O)c1ncc(NC(=O)c2cnn(-c3ccc(F)c4nccn34)c2C(F)(F)F)cc1C(F)(F)F (centres unmarked)
II: O=C(Nc1cnc(-n2nccn2)c(Cl)c1)c1cnn(-c2cccc3ncccc23)c1C(F)(F)F
Consider entries I and II . Which has the numerically lower pIC50? Response format: the label of the selected entry.
I
(I: 5.50, II: 7.89)

====

# merged literature set: IC50 with MALT1 (Homo sapiens, UniProt Q9UDY8)
MEASURED_PARAMETER: IC50 (µM)

a: O=C(Nc1cnc(-n2nccn2)c(Cl)c1)c1cnn(-c2cnc(Cl)c3ccccc23)c1C(F)(F)F
b: O=C(Nc1cnc(-n2nccn2)c(Cl)c1)c1cnn(-c2cnc(C3CCCO3)c3ccccc23)c1C(F)(F)F (centres unmarked)
Which one would you say has the larger IC50 value: a , or b ? Response format: the label of the selected entry.
a

I: Cc1cnc(-c2ncc(NC(=O)c3cnn(-c4ccc(F)c5nccn45)c3C(F)(F)F)cc2Cl)o1
II: O=C(Nc1cnc(-n2nccn2)c(Cl)c1)c1cnn(-c2cccc3cncn23)c1C(F)(F)F
III: Cc1nccc(-n2ncc(C(=O)Nc3cnc(-n4nccn4)c(C#N)c3)c2C(F)(F)F)c1C
rank_up(items): orders items by reported IC50 in ascending numerical order. # list labels per requested ordering
I, III, II

====

# merged literature set: IC50 with MALT1 (Homo sapiens, UniProt Q9UDY8)
MEASURED_PARAMETER: IC50 (nM)

- COMPOUND: "CO[C@@H](C)c1ncc(NC(=O)c2cnn(-c3ccc(F)c4nccn34)c2C(F)(F)F)cc1Cl (single isomer, unassigned)"
  MEASURED_PARAMETER: "IC50"
  READOUT_VALUE: 2340
- COMPOUND: "O=C(Nc1cnc(-n2nccn2)c(Cl)c1)c1cnn(-c2cccc(Br)n2)c1C(F)(F)F"
  MEASURED_PARAMETER: "IC50"
  READOUT_VALUE: 741
- COMPOUND: "O=C(Nc1cnc(-n2ccnn2)c(Br)c1)c1cnn(-c2cccc3ncccc23)c1C(F)(F)F"
  MEASURED_PARAMETER: "IC50"
  READOUT_VALUE: 95
- COMPOUND: "O=C(Nc1cnc(-n2nccn2)c(Cl)c1)c1cnn(-c2ccc(F)c(F)c2Cl)c1C(F)(F)F"
  MEASURED_PARAMETER: "IC50"
  READOUT_VALUE: 234

I: O=C(Nc1cnc(-n2nccn2)c(Cl)c1)c1cnn(-c2nc(Cl)ccc2Cl)c1C(F)(F)F
II: COc1cc(F)ccc1-n1ncc(C(=O)Nc2cnc(-n3nccn3)c(Cl)c2)c1C(F)(F)F
III: Cc1nc2c(-n3ncc(C(=O)Nc4cnc(-n5nccn5)c(C#N)c4)c3C(F)(F)F)cccc2o1
IV: COc1ncc(NC(=O)Nc2cnc(C)c(Br)c2C(C)OC)cc1C#N (single isomer, unassigned)
V: CO[C@H](C)c1c(NC(=O)Nc2cc(Cl)c(-n3nccn3)nc2C)cnc(C)c1C#N
rank_up(items): orders items by reported IC50 in ascending numerical order. # list labels per requested ordering
V, II, I, III, IV
(V: 100 nM, II: 162 nM, I: 794 nM, III: 2690 nM, IV: 5890 nM)
